Test system: LOX IMVI
ASSAY_OVERVIEW: Growth inhibition of human LOX IMVI cells at 10 uM relative to control
Type: functional
EXPERIMENTAL_CONTEXT: read-out: GI
VALUE_KIND: inhibition of growth at 10 µM

> print(dat)
                                   compound                     value.kind  test.result
1  C1=CN2C(=NC(/C=C/c3cccs3)=CC2c2cccs2)S1 (stereo not drawn)  inhibition of growth at 10 µM        < 10%
2  CC1=CN2C(=NC(/C=C/c3ccc(Cl)cc3)=CC2c2ccc(Cl)cc2)S1 (stereo not drawn)  inhibition of growth at 10 µM        < 10%
3  CCOC(=O)C1=CSC2=NC(/C=C/c3ccc(Cl)cc3)=CC(c3ccc(Cl)cc3)N12 (stereo not drawn)  inhibition of growth at 10 µM        < 10%

###

TARGET_UNDER_TEST: DNA
ASSAY_OVERVIEW: Displacement of methyl green from DNA (unknown origin) assessed as DNA intercalation after 24 hrs by colorimetric assay
Assay type: nucleic-acid assay
VALUE_KIND: IC50 (µg/mL)

> print(dat)
                                   compound  value.kind  test.result
1  COc1ccc(/C=C/C2=CC(c3ccc(OC)c(OC)c3)N3C=CSC3=N2)cc1OC (centres undefined)        IC50        30.05
2  COc1cccc2c1C(=O)c1c(O)c3c(c(O)c1C2=O)C[C@@](O)(C(=O)CO)C[C@@H]3O[C@H]1C[C@H](N)[C@H](O)[C@H](C)O1 [DOXORUBICIN]        IC50        31.27
3  CC1=CN2C(=NC(/C=C/c3ccc(Cl)cc3)=CC2c2ccc(Cl)cc2)S1 (centres undefined)        IC50        45.18
4  Cc1ccc(/C=C/C2=CC(c3ccc(C)cc3)N3C=CSC3=N2)cc1 (centres undefined)        IC50        62.74

###

TARGET_UNDER_TEST: DNA
ASSAY_OVERVIEW: Displacement of methyl green from DNA (unknown origin) assessed as DNA intercalation after 24 hrs by colorimetric assay
Format: nucleic-acid assay
Recorded IC50 values for a group of molecules are listed next.
VALUE_KIND: IC50 (µg/mL)

> print(dat)
                                   molecule  value.kind  unit.spec  test.result
1  CCOC(=O)C1=CSC2=NC(/C=C/c3ccc(OC)cc3)=CC(c3ccc(OC)cc3)N12 (configuration not stated)        IC50      µg/mL        28.38
2  COc1cc(/C=C/C2=CC(c3cc(OC)c(OC)c(OC)c3)N3C(C)=CSC3=N2)cc(OC)c1OC (configuration not stated)        IC50      µg/mL        91.48
3  CCOC(=O)C1=CSC2=NC(/C=C/c3cc(OC)c(OC)c(OC)c3)=CC(c3cc(OC)c(OC)c(OC)c3)N12 (configuration not stated)        IC50      µg/mL        43.92
4  CC1=CN2C(=NC(/C=C/c3ccc(C)cc3)=CC2c2ccc(C)cc2)S1 (configuration not stated)        IC50      µg/mL        87.57
5  COc1ccc(/C=C/C2=CC(c3ccc(OC)cc3)N3C=C(C)SC3=N2)cc1 (configuration not stated)        IC50      µg/mL        41.37
6  CCOC(=O)C1=CSC2=NC(/C=C/c3cccs3)=CC(c3cccs3)N12 (configuration not stated)        IC50      µg/mL        66.01
7  C1=CN2C(=NC(/C=C/c3cccs3)=CC2c2cccs2)S1 (configuration not stated)        IC50      µg/mL        33.67

###

Tested on: LOX IMVI
ASSAY_OVERVIEW: Growth inhibition of human LOX IMVI cells at 10 uM relative to control
Format: functional
EXPERIMENTAL_CONTEXT: read-out: GI
VALUE_KIND: inhibition of growth at 10 µM

> print(dat)
                                   molecule  test.result
1  COc1cc(/C=C/C2=CC(c3cc(OC)c(OC)c(OC)c3)N3C(C)=CSC3=N2)cc(OC)c1OC (centres undefined)        < 10%
2  CC1=CN2C(=NC(/C=C/c3ccc(C)cc3)=CC2c2ccc(C)cc2)S1 (centres undefined)        < 10%
3  CCOC(=O)C1=CSC2=NC(/C=C/c3ccc(OC)c(OC)c3)=CC(c3ccc(OC)c(OC)c3)N12 (centres undefined)        < 10%
4  COc1cccc2c1C(=O)c1c(O)c3c(c(O)c1C2=O)C[C@@](O)(C(=O)CO)C[C@@H]3O[C@H]1C[C@H](N)[C@H](O)[C@H](C)O1        94.3%
5  CC1=CSC2=NC(/C=C/c3cccs3)=CC(c3cccs3)N12 (centres undefined)        < 10%
6  COc1ccc(/C=C/C2=CC(c3ccc(OC)c(OC)c3)N3C(C)=CSC3=N2)cc1OC (centres undefined)        < 10%
7  COc1ccc(/C=C/C2=CC(c3ccc(OC)c(OC)c3)N3C=CSC3=N2)cc1OC (centres undefined)        < 10%
8  CCOC(=O)C1=CSC2=NC(/C=C/c3cc(OC)c(OC)c(OC)c3)=CC(c3cc(OC)c(OC)c(OC)c3)N12 (centres undefined)        29.7%
9  COc1ccc(/C=C/C2=CC(c3ccc(OC)cc3)N3C=CSC3=N2)cc1 (centres undefined)        < 10%

###

System: IGROV-1
ASSAY_OVERVIEW: Growth inhibition of human IGROV-1 cells at 10 uM relative to control
Format: functional
EXPERIMENTAL_CONTEXT: read-out: GI
VALUE_KIND: inhibition of growth at 10 µM

> print(dat)
                                    compound  test.result
 1  CC1=CN2C(=NC(/C=C/c3ccc(Cl)cc3)=CC2c2ccc(Cl)cc2)S1 (stereo unspecified)        < 10%
 2  C1=CN2C(=NC(/C=C/c3cccs3)=CC2c2cccs2)S1 (stereo unspecified)        < 10%
 3  COc1ccc(/C=C/C2=CC(c3ccc(OC)c(OC)c3)N3C=CSC3=N2)cc1OC (stereo unspecified)        < 10%
 4  COc1cc(/C=C/C2=CC(c3cc(OC)c(OC)c(OC)c3)N3C(C)=CSC3=N2)cc(OC)c1OC (stereo unspecified)        < 10%
 5  CC1=CN2C(=NC(/C=C/c3ccc(C)cc3)=CC2c2ccc(C)cc2)S1 (stereo unspecified)        < 10%
 6  CCOC(=O)C1=CSC2=NC(/C=C/c3ccc(OC)c(OC)c3)=CC(c3ccc(OC)c(OC)c3)N12 (stereo unspecified)        < 10%
 7  CCOC(=O)C1=CSC2=NC(/C=C/c3cc(OC)c(OC)c(OC)c3)=CC(c3cc(OC)c(OC)c(OC)c3)N12 (stereo unspecified)        < 10%
 8  CC1=CSC2=NC(/C=C/c3cccs3)=CC(c3cccs3)N12 (stereo unspecified)        < 10%
 9  CCOC(=O)C1=CSC2=NC(/C=C/c3ccc(Cl)cc3)=CC(c3ccc(Cl)cc3)N12 (stereo unspecified)        < 10%
10  COc1ccc(/C=C/C2=CC(c3ccc(OC)cc3)N3C=CSC3=N2)cc1 (stereo unspecified)        < 10%
11  COc1ccc(/C=C/C2=CC(c3ccc(OC)c(OC)c3)N3C(C)=CSC3=N2)cc1OC (stereo unspecified)        < 10%

###

Recorded inhibition of growth at 10 µM values for a group of compounds are listed next.
Test system: A498
ASSAY_OVERVIEW: Growth inhibition of human A498 cells at 10 uM relative to control
Format: functional
EXPERIMENTAL_CONTEXT: read-out: GI
VALUE_KIND: inhibition of growth at 10 µM

> print(dat)
                                   compound                     value.kind  test.result
1  CC1=CN2C(=NC(/C=C/c3ccc(Cl)cc3)=CC2c2ccc(Cl)cc2)S1 (stereo unspecified)  inhibition of growth at 10 µM        12.3%
2  CCOC(=O)C1=CSC2=NC(/C=C/c3ccc(OC)c(OC)c3)=CC(c3ccc(OC)c(OC)c3)N12 (stereo unspecified)  inhibition of growth at 10 µM        < 10%
3  COc1cc(/C=C/C2=CC(c3cc(OC)c(OC)c(OC)c3)N3C(C)=CSC3=N2)cc(OC)c1OC (stereo unspecified)  inhibition of growth at 10 µM        < 10%
4  CCOC(=O)C1=CSC2=NC(/C=C/c3ccc(Cl)cc3)=CC(c3ccc(Cl)cc3)N12 (stereo unspecified)  inhibition of growth at 10 µM        11.8%
5  CC1=CN2C(=NC(/C=C/c3ccc(C)cc3)=CC2c2ccc(C)cc2)S1 (stereo unspecified)  inhibition of growth at 10 µM        < 10%
6  COc1ccc(/C=C/C2=CC(c3ccc(OC)cc3)N3C=CSC3=N2)cc1 (stereo unspecified)  inhibition of growth at 10 µM        < 10%
